- method description: Cytotoxicity against human HeLa cells expressing ACE2 and TMPRSS2
- Type: toxicity, cell-based
# CC50 per record follows
measured metric: CC50

{"structure smiles": "CC(C)(C)[C@H](NC(=O)C(F)(F)F)C(=O)N1C[C@H]2[C@@H]([C@H]1C(=O)N[C@@H](C[C@@H]1CCNC1=O)C(=O)c1nc3c(F)cccc3s1)C2(C)C", "result": "> 100 µM"}
{"structure smiles": "CC(C)(C)[C@H](NC(=O)C(F)(F)F)C(=O)N1C[C@H]2[C@@H]([C@H]1C(=S)N[C@@H](C[C@@H]1CCNC1=O)C(=O)c1nc3c(F)cccc3s1)C2(C)C", "result": "> 100 µM"}

Source: ChEMBL document CHEMBL5365531
